Where these numbers come from: patent EP0443862A1

Quick reference for ED50 among some compounds
# System: NMDA-induced tonic convulsion
# test_name: Inhibition of NMDA-induced tonic convulsion in mice
# Assay type: in vivo
# particulars: Mus musculus, ip, 0.5 h, i.p., 30 minutes before NMDA injected intracerebroventicularly, read-out: Inhibition potency of NMDA-induced tonic convulsion (ED50; mg/kg, i.p.)
Give the number; mg/kg is assumed, so skip it.

Return reported ED50; argument: Clc1ccc(NCCNCCNc2ccc(Cl)c3ccccc23)c2ccccc12 [Example 5] 24.8

Continuing:
Item under review: c1cnc2c(NCCNCCNc3cccc4cccnc34)cccc2c1 [Example 1] . Reported ED50? 16.4

---

Here the recorded ED50 is given for each entry.
# Test system: NMDA-induced tonic convulsion
# test_name: Inhibition of NMDA-induced tonic convulsion in mice
# Assay type: in vivo
# particulars: Mus musculus, ip, 0.5 h, i.p., 30 minutes before NMDA injected intracerebroventicularly, read-out: Inhibition potency of NMDA-induced tonic convulsion (ED50; mg/kg, i.p.)
# Protocol: A test compound was injected intraperitoneally in mice. After 30 minutes from the administration, NMDA was injected intracerebroventicularly, and it was observed whether there was a tonic convulsion. ED₅₀ (mg/kg, i.p.) was calculated out from the inhibition rates.

Completed entries (count: 2):
Data request, read-out ED50, for c1ccc2c(NCCCNCCNc3cccc4ccccc34)cccc2c1 [Example 4] > 30 mg/kg

Consider the compound c1ccc2c(NCCNCCNc3cccc4ccccc34)cccc2c1 [Example 2] and give its measured ED50. > 30 mg/kg

# evaluate next
Entry c1cc2c(c(NCCNCCNc3cccc4c3CCCC4)c1)CCCC2 [Example 3] : reported ED50 = ? > 30 mg/kg
